System: PRMT1 (protein arginine N-methyltransferase 1)
Assay: PRMT1 binders on small-molecule microarrays, primary screen, biochemical, small-molecule microarray, 635 nm fluorescence (AID 1088);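 further: binding of Prmt1 protein to compounds spotted on small-molecule microarray slides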
Details: small-molecule microarray binding, higher = more signal
Endpoint: composite z-score
Give bare numbers.

Provide the reported composite z-score of each entry below, same order.
1. C=CCOC(=O)[C@H]1[C@@H]2C(=O)O[C@@H](c3ccccc3)[C@@H](c3ccccc3)N2[C@@H](c2ccc(OCCOC(=O)[C@H]3C[C@H]4C(=O)NCC(=O)N4[C@H]3c3ccc(O)cc3)cc2)[C@]12C(=O)Nc1ccccc12
2. CC(C)C[C@@H]1NC(=O)[C@@H]2C[C@H](C(=O)NCCCCCNC(=O)CS)[C@H](c3ccc(O)cc3)N2C1=O
3. C=C(C(=O)CC[C@@H](OC(=O)c1cccnc1)c1cccc(OCCO)c1)C(C)C

**Result**
1: 1.48; 2: 1.16; 3: 0.271

Please look at the items below and tell me composite z-score for each one, in order.
1. COCCOC(=O)N1C(=O)[C@@]2(c3cc(C#CCNC(N)=O)ccc31)[C@H](C(=O)N1CCN(c3ncccn3)CC1)[C@H]1C(=O)O[C@H](c3ccccc3)[C@H](c3ccccc3)N1[C@@H]2c1ccc(O)cc1
2. O=C/C=C/c1ccc(-c2ccccc2)cc1
3. CCOC(=O)C[C@H]1[C@H](OC(=O)c2ccc(-c3ccccc3)cc2)[C@@H](NC(=O)c2ccc(-c3ccccc3)cc2)c2cc(OCCCO)ccc2N1C(=O)c1ccccc1
4. COC(=O)Cn1c(C(=O)N(C)C)cc2c1C[C@H]1CN(C(=O)c3ccccc3)[C@@](Cc3ccccc3)(C(=O)OC)[C@@H]21
5. Cc1ccc(N2C(=O)c3ccccc3[C@@H](C(=O)NCCN3CCOCC3)[C@@H]2c2ccc(CO)cc2)nc1
6. CC(C)Cc1ccc(CN2CC[C@@H](NC(=O)c3ccccc3)C2)cc1
7. CC(C)[Si](C#Cc1ccccc1)(O[C@H](c1ccccc1)c1cn(Cc2ccccc2)nn1)C(C)C
8. CC(C)c1ccc(NN2C(C(O)c3ccccc3)C=CC3C(=O)N(c4ccccc4)C(=O)C32)cc1 (stereo not drawn)

**Result**
-0.479
-0.645
1.26
-0.858
0.722
-0.174
1.02
0.787

Hi team, please reply with composite z-score for each item in this list.
1. COCCCNC(=O)[C@@]1(Cc2ccccc2I)c2ccccc2C(=O)N(C2CCCCC2)[C@H]1c1ccc(CO)cc1
2. C=C(COC)C(=O)CC[C@H](OC(C)=O)c1ccc(CO)o1
3. CC1CC/C=C\[C@H]2OC34C=CCN(CCN5CCOCC5)C(=O)[C@H]3N(C(CO)C(C)C)C(=O)[C@@H]4C2C(=O)O1 (stereo partly drawn)
4. COCCOC(=O)N1C(=O)[C@@]2(c3cc(C#CCNC(N)=O)ccc31)[C@H](C(N)=O)[C@H]1C(=O)O[C@H](c3ccccc3)[C@H](c3ccccc3)N1[C@@H]2c1ccc(O)cc1
5. COC(=O)[C@@]1(Cc2ccc(F)cc2)[C@H]2c3cc(C(=O)N(C)C)n(Cc4cccc5ccccc45)c3C[C@H]2CN1C(=O)c1ccccc1

**Result**
1: 1.51; 2: -0.451; 3: 1.42; 4: 0.46; 5: -0.72

Hi there! I need composite z-score for each item below, if you can.
1. CC(C)(C)OC(=O)CC[C@]1(C(N)=O)N=C(c2ccc(OCCCO)cc2)O[C@H]1c1ccccc1N=[N+]=[N-]
2. C[C@]1(C(=O)O)c2ccccc2C(=O)N(Cc2cc(C(F)(F)F)cc(C(F)(F)F)c2)[C@H]1c1ccc(CO)cc1

**Result**
[0.138, 1.43]
